# credit: the array DNA melting data of Ke et al. (doi:10.1101/2024.01.08.574731)

Procedure Summary: melting temperature; fluorescence melt of hairpins on a sequencing array, two-state fit, raised by 9.35 °C to match UV melts
Applied Conditions: sodium 0.088 M
Entries and their Tm values follow.
Readout Kind: Tm (°C)

1) GCAGGGGGAAACTCCTGC (((((.(....).))))) = 57.6
2) GATCCGTCCACGGATC ((((((....)))))) = 64.1
3) GTCTACGCGAAAGCGGAC (((..(((....)))))) = 41.3
4) GAAAGCGAAAGCTCCTTC ((((((....)))..))) = 31.4
5) GACTTGGGAAACCAAGCC (.(((((....))))).) = 41.8
6) GCCTCGCGAAAGCTGGGC (((..((....))..))) = 55.4
7) GCGTCACACGC ((((...)))) = 56.2
8) GATCAGAACCCTGATC ((((((....)))))) = 47
9) GAGTCAGGAAACTAACTC ((((.((....)).)))) = 25.4
10) GCGGGGCGAAAGCTCGGC ((.(.((....)).).)) = 56.3
11) GTCTTTCGAAAGAATGAC (((.(((....))).))) = 45.2
12) GCGCGCCGAAAGGCCCGC (((.(((....))).))) = 68.5
